Record form. Attribute: inhibition. Fill in for each entry.
- TEST TARGET: Bromodomain-containing protein 9 (Homo sapiens) (UniProt Q9H8M2)
- Sequence (Q9H8M2 whole entry): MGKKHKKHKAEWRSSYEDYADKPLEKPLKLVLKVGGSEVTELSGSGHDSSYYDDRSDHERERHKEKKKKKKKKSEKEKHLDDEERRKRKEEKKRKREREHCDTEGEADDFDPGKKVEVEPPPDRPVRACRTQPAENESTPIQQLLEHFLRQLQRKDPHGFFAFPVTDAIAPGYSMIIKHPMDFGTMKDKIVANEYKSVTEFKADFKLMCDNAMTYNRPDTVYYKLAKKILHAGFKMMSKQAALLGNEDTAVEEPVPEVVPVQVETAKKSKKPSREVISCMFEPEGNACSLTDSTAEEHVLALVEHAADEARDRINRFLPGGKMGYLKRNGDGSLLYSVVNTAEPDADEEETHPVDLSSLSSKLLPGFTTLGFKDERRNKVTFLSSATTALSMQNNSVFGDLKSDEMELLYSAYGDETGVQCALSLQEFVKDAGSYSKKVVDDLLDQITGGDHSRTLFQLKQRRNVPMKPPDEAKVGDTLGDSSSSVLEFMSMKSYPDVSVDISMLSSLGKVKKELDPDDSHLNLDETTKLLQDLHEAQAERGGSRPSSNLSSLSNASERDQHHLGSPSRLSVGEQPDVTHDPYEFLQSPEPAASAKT
- EXPERIMENT NOTES: Inhibition of BRD9 (unknown origin) at 1 uM using H4 peptide as substrate preincubated for 15 mins followed by substrate addition and measured after 60 mins by Alphascreen assay relative to control
Give a bare numeral; the unit % is implied.

What does the data say about its inhibition? Entry: C/C=C/Cn1cc(-c2ccc(C(=O)N3CCC(C(N)=O)CC3)c(Cl)c2)n2cncc2c1=O 94

What does the data say about its inhibition? Entry: CCn1cc(-c2ccc(C(=O)NC3CCS(=O)(=O)CC3)c(Cl)c2)n2cncc2c1=O 75

What does the data say about its inhibition? Entry: C/C=C/Cn1cc(-c2ccc(C(=O)N3CCN(S(C)(=O)=O)CC3)c(Cl)c2)n2cncc2c1=O 94

What does the data say about its inhibition? Entry: CCCn1cc(-c2ccc(C(=O)N3CCNCC3)c(Cl)c2)n2cncc2c1=O 86

What does the data say about its inhibition? Entry: C/C=C/Cn1cc(-c2ccc(C(=O)N3CCOCC3)cc2Cl)n2cncc2c1=O 42

What does the data say about its inhibition? Entry: C/C=C/Cn1cc(-c2ccc(C(=O)N3CCN(S(C)(=O)=O)CC3)c(F)c2)n2cncc2c1=O 71

What does the data say about its inhibition? Entry: CCn1cc(-c2ccc(C(=O)N3CCOCC3)c(Cl)c2)n2cncc2c1=O 5

What does the data say about its inhibition? Entry: C/C=C/Cn1cc(-c2ccc(C(=O)N3CCN(S(C)(=O)=O)CC3)cc2Cl)n2cncc2c1=O 52

What does the data say about its inhibition? Entry: C/C=C/Cn1cc(-c2ccc(C(=O)N3CCNCC3)c(Cl)c2)n2cncc2c1=O 99

* * *

- TEST TARGET: Bromodomain-containing protein 9 (Homo sapiens)
- EXPERIMENT NOTES: Inhibition of BRD9 (unknown origin) at 1 uM using H4 peptide as substrate preincubated for 15 mins followed by substrate addition and measured after 60 mins by Alphascreen assay relative to control
Class Fulfilled: inhibition at least 30%. Class Not fulfilled: inhibition below 30%.

Identify whether the reported inhibition of the following compound is 30% or greater: COc1cccc(-c2cn(C)c(=O)c3cncn23)c1 Not fulfilled

Identify whether the reported inhibition of the following compound is 30% or greater: Cn1cc(-c2ccc(C(=O)N3CCOCC3)c(Cl)c2)n2cncc2c1=O Not fulfilled

Identify whether the reported inhibition of the following compound is 30% or greater: CCCn1cc(-c2ccc(C(=O)NC3CCS(=O)(=O)CC3)c(Cl)c2)n2cncc2c1=O Not fulfilled

Identify whether the reported inhibition of the following compound is 30% or greater: CCCCn1cc(-c2ccc(C(=O)N3CCOCC3)c(Cl)c2)n2cncc2c1=O Fulfilled

Identify whether the reported inhibition of the following compound is 30% or greater: CCCCn1cc(-c2ccc(C(=O)N3CCNCC3)c(Cl)c2)n2cncc2c1=O Fulfilled

Identify whether the reported inhibition of the following compound is 30% or greater: C/C=C/Cn1cc(-c2ccc(C(=O)NC3CCS(=O)(=O)CC3)c(Cl)c2)n2cncc2c1=O Fulfilled

Identify whether the reported inhibition of the following compound is 30% or greater: CCCCn1cc(-c2ccc(C(=O)NC3CCS(=O)(=O)CC3)c(Cl)c2)n2cncc2c1=O Not fulfilled

Identify whether the reported inhibition of the following compound is 30% or greater: C/C=C/Cn1cc(-c2ccc(C(=O)N3CCCC3)c(Cl)c2)n2cncc2c1=O Fulfilled

Identify whether the reported inhibition of the following compound is 30% or greater: C/C=C/Cn1cc(-c2ccc(C(=O)N3CCN(C)CC3)c(Cl)c2)n2cncc2c1=O Fulfilled
